These measurements were taken from paper PMC8177813.

Consider the following molecules; for each one, report its Ki.
- target_or_test_system: human OAT3 (Homo sapiens, UniProt Q8TCC7)
- Sequence (Q8TCC7 whole entry): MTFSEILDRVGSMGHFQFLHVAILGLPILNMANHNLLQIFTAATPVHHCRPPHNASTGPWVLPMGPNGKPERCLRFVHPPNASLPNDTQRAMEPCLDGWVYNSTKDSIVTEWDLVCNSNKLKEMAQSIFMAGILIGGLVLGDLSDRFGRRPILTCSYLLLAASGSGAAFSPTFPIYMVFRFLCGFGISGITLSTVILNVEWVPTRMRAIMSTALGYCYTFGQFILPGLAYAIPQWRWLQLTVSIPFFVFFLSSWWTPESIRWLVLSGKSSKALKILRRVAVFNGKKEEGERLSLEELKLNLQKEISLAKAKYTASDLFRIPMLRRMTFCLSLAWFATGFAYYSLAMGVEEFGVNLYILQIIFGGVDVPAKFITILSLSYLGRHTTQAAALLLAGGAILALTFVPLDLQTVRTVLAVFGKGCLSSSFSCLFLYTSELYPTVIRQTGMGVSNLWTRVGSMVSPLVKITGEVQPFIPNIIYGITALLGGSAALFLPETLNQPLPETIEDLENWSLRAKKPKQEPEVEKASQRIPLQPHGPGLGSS
- assay_comment: Inhibition of OAT3-mediated 6-carboxyfluorescein
Numbers only, in µM.

CC(=O)CC(c1ccccc1)c1c(O)c2ccccc2oc1=O (centres unmarked) [Warfarin, reference compound]; 3.11

Any idea what Ki was measured for CC(C(=O)O)c1cccc(C(=O)c2ccccc2)c1 (centres unmarked) [Ketoprofen, reference compound] ?
1.61

====

- target_or_test_system: human OAT1 (Homo sapiens, UniProt Q4U2R8)
- Sequence (Q4U2R8 1-563): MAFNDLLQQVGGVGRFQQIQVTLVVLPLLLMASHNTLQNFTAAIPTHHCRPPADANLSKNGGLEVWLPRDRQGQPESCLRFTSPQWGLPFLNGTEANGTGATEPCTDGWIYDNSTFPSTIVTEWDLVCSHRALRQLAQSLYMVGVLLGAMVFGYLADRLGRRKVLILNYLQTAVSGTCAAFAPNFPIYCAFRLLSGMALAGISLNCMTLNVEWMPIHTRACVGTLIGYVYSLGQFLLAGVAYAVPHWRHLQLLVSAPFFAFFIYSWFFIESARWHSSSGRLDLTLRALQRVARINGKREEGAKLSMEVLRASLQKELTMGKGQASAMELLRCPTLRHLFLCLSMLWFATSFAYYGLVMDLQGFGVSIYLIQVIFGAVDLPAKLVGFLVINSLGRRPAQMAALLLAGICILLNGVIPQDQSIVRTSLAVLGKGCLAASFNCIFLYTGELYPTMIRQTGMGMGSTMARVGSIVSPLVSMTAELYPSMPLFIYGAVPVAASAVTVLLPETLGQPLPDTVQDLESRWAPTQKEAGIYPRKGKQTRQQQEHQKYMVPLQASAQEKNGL
- assay_comment: Inhibition of OAT1-mediated 6-carboxyfluorescein
- particulars: read-out: Ki (OAT1); HEK293 cells stably transfected with OAT1; 2 μM 6CF, 3 min, 37 °C; […]
measured_metric: pKi
Numbers only, as −log10 of the molar value.

Any idea what pKi was measured for COc1ccc(Cl)cc1C(=O)NCCc1ccc(S(=O)(=O)NC(=O)N[C@H]2CCC[C@@H](O)C2)cc1 (relative stereo) [3-cis-hydroxycyclohexyl glyburide] ?
5.00
